experiment: Single ascending dose and food-effect pharmacokinetics of naringin tablets in healthy humans; assay type: in vivo, human; conditions: male, human, plasma, po, 160 mg, naringin 160 mg p.o. single dose
measured attribute: Tmax
Number first, unit second.

Using the record for C[C@@H]1O[C@@H](O[C@H]2[C@H](Oc3cc(O)c4c(c3)O[C@H](c3ccc(O)cc3)CC4=O)O[C@H](CO)[C@@H](O)[C@@H]2O)[C@H](O)[C@H](O)[C@H]1O , report its Tmax.
1.75 h

====

experiment: Single-dose pharmacokinetics in dogs (plasma, UHPLC/MS/MS); type: in vivo, Beagle dogs; settings: both sexes, beagle, dog, plasma, po, 49.6 mg/kg
measured attribute: AUC(0-inf) (ng·h/mL)
Please give a number only; it is taken to be in ng·h/mL.

Using the record for C[C@@H]1O[C@@H](O[C@H]2[C@H](Oc3cc(O)c4c(c3)O[C@H](c3ccc(O)cc3)CC4=O)O[C@H](CO)[C@@H](O)[C@@H]2O)[C@H](O)[C@H](O)[C@H]1O , report its AUC(0-inf).
224

====

assay: Single ascending dose and food-effect pharmacokinetics of naringin tablets in healthy humans; assay type: in vivo, human; settings: both sexes, human, plasma, po, 160 mg, naringin 160 mg p.o. single dose, human; read-out: MRT0-t
measured attribute: MRT last (h)
Please give a number only; it is taken to be in h.

Using the record for C[C@@H]1O[C@@H](O[C@H]2[C@H](Oc3cc(O)c4c(c3)O[C@H](c3ccc(O)cc3)CC4=O)O[C@H](CO)[C@@H](O)[C@@H]2O)[C@H](O)[C@H](O)[C@H]1O , report its MRT last.
3.3

====

assay: Single-dose pharmacokinetics in rats (plasma, UHPLC/MS/MS); format: in vivo, Sprague Dawley rats; settings: male, Sprague Dawley, rat, plasma, iv, 42 mg/kg
Reported AUC(0-inf) by item:
Please give a number only; it is taken to be in ng·h/mL.

Using the record for C[C@@H]1O[C@@H](O[C@H]2[C@H](Oc3cc(O)c4c(c3)O[C@H](c3ccc(O)cc3)CC4=O)O[C@H](CO)[C@@H](O)[C@@H]2O)[C@H](O)[C@H](O)[C@H]1O , report its AUC(0-inf).
21400

Switching to the query record.
Using the record for O=C1C[C@@H](c2ccc(O)cc2)Oc2cc(O)cc(O)c21 , report its AUC(0-inf).
3010

====

assay: Single-dose pharmacokinetics in rats (plasma, UHPLC/MS/MS); format: in vivo, Sprague Dawley rats; conditions: male, Sprague Dawley, rat, plasma, po, 21 mg/kg
measured attribute: Tmax (h)
Please give a number only; it is taken to be in h.

Using the record for C[C@@H]1O[C@@H](O[C@H]2[C@H](Oc3cc(O)c4c(c3)O[C@H](c3ccc(O)cc3)CC4=O)O[C@H](CO)[C@@H](O)[C@@H]2O)[C@H](O)[C@H](O)[C@H]1O , report its Tmax.
1.5

====

assay: Single ascending dose and food-effect pharmacokinetics of naringin tablets in healthy humans; assay type: in vivo, human; conditions: both sexes, human, plasma, po, 160 mg, naringin 160 mg p.o. single dose
measured attribute: Cmax (ng/mL)
Please give a number only; it is taken to be in ng/mL.

Using the record for C[C@@H]1O[C@@H](O[C@H]2[C@H](Oc3cc(O)c4c(c3)O[C@H](c3ccc(O)cc3)CC4=O)O[C@H](CO)[C@@H](O)[C@@H]2O)[C@H](O)[C@H](O)[C@H]1O , report its Cmax.
4.29

====

experiment: Single-dose pharmacokinetics in rats (plasma, UHPLC/MS/MS); format: in vivo, Sprague Dawley rats; conditions: both sexes, Sprague Dawley, rat, plasma, po, 21 mg/kg
measured attribute: half-life (min)
Please give a number only; it is taken to be in min.

Using the record for C[C@@H]1O[C@@H](O[C@H]2[C@H](Oc3cc(O)c4c(c3)O[C@H](c3ccc(O)cc3)CC4=O)O[C@H](CO)[C@@H](O)[C@@H]2O)[C@H](O)[C@H](O)[C@H]1O , report its half-life.
30

====

assay: Single ascending dose and food-effect pharmacokinetics of naringin tablets in healthy humans; assay type: in vivo, human; conditions: male, human, plasma, po, 80 mg, naringin 80 mg p.o. single dose
measured attribute: AUC(0-t) (ng·h/mL)
Please give a number only; it is taken to be in ng·h/mL.

Using the record for C[C@@H]1O[C@@H](O[C@H]2[C@H](Oc3cc(O)c4c(c3)O[C@H](c3ccc(O)cc3)CC4=O)O[C@H](CO)[C@@H](O)[C@@H]2O)[C@H](O)[C@H](O)[C@H]1O , report its AUC(0-t).
8.35

====

assay: Single-dose pharmacokinetics in rats (plasma, UHPLC/MS/MS); assay type: in vivo, Sprague Dawley rats; conditions: female, Sprague Dawley, rat, plasma, po, 21 mg/kg
measured attribute: AUC(0-t)
Number first, unit second.

Using the record for C[C@@H]1O[C@@H](O[C@H]2[C@H](Oc3cc(O)c4c(c3)O[C@H](c3ccc(O)cc3)CC4=O)O[C@H](CO)[C@@H](O)[C@@H]2O)[C@H](O)[C@H](O)[C@H]1O , report its AUC(0-t).
47 ng·h/mL

====

experiment: Single-dose pharmacokinetics in rats (plasma, UHPLC/MS/MS); assay type: in vivo, Sprague Dawley rats; conditions: male, Sprague Dawley, rat, plasma, po, 10.5 mg/kg
measured attribute: AUC(0-t) (ng·h/mL)
Please give a number only; it is taken to be in ng·h/mL.

Using the record for C[C@@H]1O[C@@H](O[C@H]2[C@H](Oc3cc(O)c4c(c3)O[C@H](c3ccc(O)cc3)CC4=O)O[C@H](CO)[C@@H](O)[C@@H]2O)[C@H](O)[C@H](O)[C@H]1O [naringin, Naringin] , report its AUC(0-t).
33.5

====

experiment: Single ascending dose and food-effect pharmacokinetics of naringin tablets in healthy humans; format: in vivo, human; settings: female, human, plasma, po, 160 mg, naringin 160 mg p.o. single dose, high-fat diet group, human, female
measured attribute: Tmax
Number first, unit second.

Using the record for C[C@@H]1O[C@@H](O[C@H]2[C@H](Oc3cc(O)c4c(c3)O[C@H](c3ccc(O)cc3)CC4=O)O[C@H](CO)[C@@H](O)[C@@H]2O)[C@H](O)[C@H](O)[C@H]1O , report its Tmax.
2.88 h

====

Assay: Single-dose pharmacokinetics in rats (plasma, UHPLC/MS/MS)
Assay type: in vivo, Sprague Dawley rats
Conditions: both sexes, Sprague Dawley, rat, plasma, po, 42 mg/kg
Description: Sixty healthy adult Sprague Dawley rats (180-220 g, half male and female) were purchased from the Guangdong Medical Laboratory Animal Center (Guangzhou, Guangdong, China). Thirty Beagle dogs (10-14 kg, half male and female) were purchased from the […] […] The compounds were detected by multiple reaction monitoring in the negative ion electrospray mode. […] All pharmacokinetic and excretion parameters were expressed as mean ± standard deviation (SD). […]
measured attribute: Tmax

Using the record for C[C@@H]1O[C@@H](O[C@H]2[C@H](Oc3cc(O)c4c(c3)O[C@H](c3ccc(O)cc3)CC4=O)O[C@H](CO)[C@@H](O)[C@@H]2O)[C@H](O)[C@H](O)[C@H]1O , report its Tmax.
1.18 h

====

experiment: Single ascending dose and food-effect pharmacokinetics of naringin tablets in healthy humans; assay type: in vivo, human; settings: both sexes, human, plasma, oral, naringin in humans, clinical studies overall
measured attribute: Tmax (h)
Please give a number only; it is taken to be in h.

Using the record for C[C@@H]1O[C@@H](O[C@H]2[C@H](Oc3cc(O)c4c(c3)O[C@H](c3ccc(O)cc3)CC4=O)O[C@H](CO)[C@@H](O)[C@@H]2O)[C@H](O)[C@H](O)[C@H]1O [naringin, Naringin] , report its Tmax.
2.09

====

assay: Single-dose pharmacokinetics in rats (plasma, UHPLC/MS/MS); assay type: in vivo, Sprague Dawley rats; conditions: both sexes, Sprague Dawley, rat, plasma, po, 10.5 mg/kg
measured attribute: AUC(0-t) (ng·h/mL)
Please give a number only; it is taken to be in ng·h/mL.

Using the record for C[C@@H]1O[C@@H](O[C@H]2[C@H](Oc3cc(O)c4c(c3)O[C@H](c3ccc(O)cc3)CC4=O)O[C@H](CO)[C@@H](O)[C@@H]2O)[C@H](O)[C@H](O)[C@H]1O [naringin, Naringin] , report its AUC(0-t).
32.7

====

test: Single-dose pharmacokinetics in rats (plasma, UHPLC/MS/MS); format: in vivo, Sprague Dawley rats; settings: male, Sprague Dawley, rat, plasma, po, 10.5 mg/kg
measured attribute: AUC(0-inf) (ng·h/mL)
Please give a number only; it is taken to be in ng·h/mL.

Using the record for C[C@@H]1O[C@@H](O[C@H]2[C@H](Oc3cc(O)c4c(c3)O[C@H](c3ccc(O)cc3)CC4=O)O[C@H](CO)[C@@H](O)[C@@H]2O)[C@H](O)[C@H](O)[C@H]1O , report its AUC(0-inf).
36.9
